// data source = FireProtDB

B1: Ribonuclease HI, P0A7Y4 (parent)
chain: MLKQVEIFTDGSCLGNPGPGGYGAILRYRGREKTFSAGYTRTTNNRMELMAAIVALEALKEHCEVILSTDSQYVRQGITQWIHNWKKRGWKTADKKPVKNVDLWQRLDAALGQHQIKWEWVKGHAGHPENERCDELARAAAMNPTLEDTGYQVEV

Variants of: B1
condition-info: Escherichia coli (strain K12); pH 3; 49.8 °C; Thermal; CD; glycine-HCl 10 mM; reversible: yes; structure 2RN2; whole UniProt chain shown
measure-name: ddG of mutation (higher = less stable) (kJ/mol)

mutation-string	recorded-number
G77A	3.77
K95A	-0.418
H62P	-4.18
Q113P	0.837
Y28F R29H G30A R31H	2.93
K95N	-3.77
K91R D94E	2.51
K91R D94E K95G	-5.02
D94R K95G	-4.6
K91R K95G	-6.69
A125T	-0.418
